These entries and their values trace back to ChEMBL document CHEMBL3132854.

Tested on: BT-549
protocol_description: Growth inhibition of human BT549 cells assessed as cell growth at 10 uM by sulforhodamine B assay relative to control; values are per cent of control
parameter: growth, % of control at 10 µM
Please state the value followed by its unit.

I would be grateful if you could share the reported growth, % of control at 10 µM for `COc1ccc(C(=O)/C=C/c2ccc(/C=C/c3ccc(Cl)cc3)cc2)cc1` .
103%

Same for `COc1ccc(C(=O)/C=C/c2ccc(/C=C/c3ccc(F)cc3)cc2)cc1`
101%

Another molecule to look at: `COc1ccc(/C=C/c2ccc(/C=C/C(=O)c3ccc(Cl)cc3)cc2)cc1`
93.4%

Follow-up entry: `COc1ccc(C(=O)/C=C/c2ccc(/C=C/c3cc(OC)c(OC)c(OC)c3)cc2)cc1`
41.6%

----------
System: KM12
protocol_description: Growth inhibition of human KM12 cells assessed as cell growth at 10 uM by sulforhodamine B assay relative to control; values are per cent of control
parameter: growth, % of control at 10 µM (%)
Write down the numeric answer in % and omit the unit.

Recorded growth, % of control at 10 µM, per entry:
COc1ccc(/C=C/c2ccc(/C=C/C(=O)c3ccc(Cl)cc3)cc2)cc1: 96.3
COc1ccc(C(=O)/C=C/c2ccc(/C=C/c3ccc(Cl)cc3)cc2)cc1: 100
COc1ccc(C(=O)/C=C/c2ccc(/C=C/c3ccc(F)cc3)cc2)cc1: 104

We now examine a further molecule.
Quick one: growth, % of control at 10 µM of `COc1ccc(C(=O)/C=C/c2ccc(/C=C/c3cc(OC)c(OC)c(OC)c3)cc2)cc1` ?
29.2

----------
System: K562
protocol_description: Growth inhibition of human K562 cells assessed as cell growth at 10 uM by sulforhodamine B assay relative to control; values are per cent of control
Here the recorded growth, % of control at 10 µM is given for each entry.
Numbers only here, please. The scale is %.

Guide cases for growth, % of control at 10 µM, answers given:
COc1ccc(C(=O)/C=C/c2ccc(/C=C/c3ccc(Cl)cc3)cc2)cc1: 87.8
COc1ccc(C(=O)/C=C/c2ccc(/C=C/c3ccc(F)cc3)cc2)cc1: 86.3
COc1ccc(/C=C/c2ccc(/C=C/C(=O)c3ccc(Cl)cc3)cc2)cc1: 87.3

Switching to the query record.
What growth, % of control at 10 µM value was documented for this compound, `COc1ccc(C(=O)/C=C/c2ccc(/C=C/c3cc(OC)c(OC)c(OC)c3)cc2)cc1` ?
14.4

----------
System: HCT-116
protocol_description: Growth inhibition of human HCT116 cells assessed as cell growth at 10 uM by sulforhodamine B assay relative to control; values are per cent of control
parameter: growth, % of control at 10 µM
A complete answer gives the number and then names the unit.

Illustrative cases are given below, each with its answer.
COc1ccc(/C=C/c2ccc(/C=C/C(=O)c3ccc(Cl)cc3)cc2)cc1: 93.3%
COc1ccc(C(=O)/C=C/c2ccc(/C=C/c3ccc(Cl)cc3)cc2)cc1: 97.5%
COc1ccc(C(=O)/C=C/c2ccc(/C=C/c3ccc(F)cc3)cc2)cc1: 95.8%

Which growth, % of control at 10 µM is listed for `COc1ccc(C(=O)/C=C/c2ccc(/C=C/c3cc(OC)c(OC)c(OC)c3)cc2)cc1` ?
17.5%

----------
protocol_description: Growth inhibition of human OVCAR5 cells assessed as cell growth at 10 uM by sulforhodamine B assay relative to control; values are per cent of control
setup_conditions: OVCAR-5
parameter: growth, % of control at 10 µM (%)
Provide the reading as a plain figure in %.

COc1ccc(C(=O)/C=C/c2ccc(/C=C/c3cc(OC)c(OC)c(OC)c3)cc2)cc1: 117
COc1ccc(/C=C/c2ccc(/C=C/C(=O)c3ccc(Cl)cc3)cc2)cc1: 102
COc1ccc(C(=O)/C=C/c2ccc(/C=C/c3ccc(F)cc3)cc2)cc1: 102

Note: attention shifts to another entry.
Requested read-out: growth, % of control at 10 µM. Entry: `COc1ccc(C(=O)/C=C/c2ccc(/C=C/c3ccc(Cl)cc3)cc2)cc1`
96.6
